Experimental Target: MAO-A (Sus scrofa)
Construct: from tissue; host or cells: pig brain mitochondria
Sequence (Q6Q2J0 1-527): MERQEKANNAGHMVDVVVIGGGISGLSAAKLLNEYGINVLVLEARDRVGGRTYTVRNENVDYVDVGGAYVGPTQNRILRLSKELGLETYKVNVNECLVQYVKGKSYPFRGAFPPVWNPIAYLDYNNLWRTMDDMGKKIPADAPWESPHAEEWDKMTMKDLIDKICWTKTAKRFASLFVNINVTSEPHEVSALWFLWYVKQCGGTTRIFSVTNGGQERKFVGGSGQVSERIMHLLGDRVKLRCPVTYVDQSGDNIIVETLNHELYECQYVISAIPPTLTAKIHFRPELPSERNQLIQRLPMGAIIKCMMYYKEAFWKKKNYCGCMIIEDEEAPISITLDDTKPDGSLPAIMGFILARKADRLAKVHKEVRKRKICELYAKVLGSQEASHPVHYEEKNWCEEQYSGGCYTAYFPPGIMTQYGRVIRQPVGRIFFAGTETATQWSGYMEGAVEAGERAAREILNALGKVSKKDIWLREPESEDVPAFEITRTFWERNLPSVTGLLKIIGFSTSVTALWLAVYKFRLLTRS
Method: MAO-A activity, radiolabeled [3H]serotonin substrate
Assay type: biochemical, pig
Protocol: Pig brains were obtained from a slaughterhouse. Mitochondrial fraction isolation and purification from brain cortex were performed as previously described. […] Mitochondria in KH buffer at final concentration of 800 µg/mL were preincubated with the tested drugs in a final concentration range of 0.1–300 µM for 60 min at 37 °C. […] The radioactivity of the organic phases of the extracts were measured by liquid scintillation counting (LS 6000IC, Beckman Instruments, Inc., Fullerton, CA, USA). […]
Endpoint Name: IC50 (µM)
# output: bare number, implied unit µM

# return IC50 for CNC1(c2ccccc2Cl)CCCCC1=O (stereo not shown) , test system: MAO-A (Sus scrofa)
10.4

* * *

Experimental Target: MAO-A (Sus scrofa, UniProt Q6Q2J0)
Construct: from tissue; host or cells: pig brain mitochondria
Method: MAO-A activity, radiolabeled [3H]serotonin substrate
Assay type: biochemical, pig
Condition Description: mean ± SEM, 4 measurements; read-out: MAO-A IC50
// pIC50 lookup, one value per entry
Value format note: pIC50 is -log10 of concentration (mol/L); just state the number.

* Cc1ccc(Sc2ccccc2N2CCNCC2)c(C)c1 [vortioxetine] | 5.13

Now look at this one.
Read the entry COc1ccc2cccc(CCNC(C)=O)c2c1 [agomelatine] and write its reported pIC50.
5.09

* * *

Experimental Target: MAO-B (Sus scrofa, UniProt Q6PLK3)
Construct: from tissue; host or cells: pig brain mitochondria
Sequence (Q6PLK3 1-520): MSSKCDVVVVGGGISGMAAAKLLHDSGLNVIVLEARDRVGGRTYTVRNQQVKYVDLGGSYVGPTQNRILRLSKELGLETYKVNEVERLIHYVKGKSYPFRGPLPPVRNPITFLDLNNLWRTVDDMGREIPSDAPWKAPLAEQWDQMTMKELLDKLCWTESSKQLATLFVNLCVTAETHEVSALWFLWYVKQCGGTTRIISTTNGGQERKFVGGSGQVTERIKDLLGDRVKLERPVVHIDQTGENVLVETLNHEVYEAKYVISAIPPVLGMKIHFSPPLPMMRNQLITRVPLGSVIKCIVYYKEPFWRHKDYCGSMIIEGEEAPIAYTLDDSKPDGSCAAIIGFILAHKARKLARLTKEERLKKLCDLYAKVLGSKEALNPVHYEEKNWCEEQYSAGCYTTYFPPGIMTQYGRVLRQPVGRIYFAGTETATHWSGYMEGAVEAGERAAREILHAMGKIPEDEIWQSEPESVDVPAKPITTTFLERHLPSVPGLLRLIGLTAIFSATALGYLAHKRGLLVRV
Method: MAO-B activity, radiolabeled [14C]PEA substrate
Type: biochemical, pig
Condition Description: mean ± SEM, 4 measurements; read-out: MAO-B IC50
Protocol: Pig brains were obtained from a slaughterhouse. Mitochondrial fraction isolation and purification from brain cortex were performed as previously described. […] Mitochondria in KH buffer at final concentration of 800 µg/mL were preincubated with the tested drugs in a final concentration range of 0.1–300 µM for 60 min at 37 °C. […] The radioactivity of the organic phases of the extracts were measured by liquid scintillation counting (LS 6000IC, Beckman Instruments, Inc., Fullerton, CA, USA). […]
Endpoint Name: pIC50
Value format note: pIC50 is -log10 of concentration (mol/L); just state the number.

Read the entry Cc1ccc(Sc2ccccc2N2CCNCC2)c(C)c1 and write its reported pIC50.
4.74
